- TARGET: EGFR Δ746-750 mutant (Homo sapiens (Human), UniProt P00533, DEL746-750)
- Sequence (P00533 other isoform, or with tags, fused parts or gaps del 1-668/del 746-750 limits assumed): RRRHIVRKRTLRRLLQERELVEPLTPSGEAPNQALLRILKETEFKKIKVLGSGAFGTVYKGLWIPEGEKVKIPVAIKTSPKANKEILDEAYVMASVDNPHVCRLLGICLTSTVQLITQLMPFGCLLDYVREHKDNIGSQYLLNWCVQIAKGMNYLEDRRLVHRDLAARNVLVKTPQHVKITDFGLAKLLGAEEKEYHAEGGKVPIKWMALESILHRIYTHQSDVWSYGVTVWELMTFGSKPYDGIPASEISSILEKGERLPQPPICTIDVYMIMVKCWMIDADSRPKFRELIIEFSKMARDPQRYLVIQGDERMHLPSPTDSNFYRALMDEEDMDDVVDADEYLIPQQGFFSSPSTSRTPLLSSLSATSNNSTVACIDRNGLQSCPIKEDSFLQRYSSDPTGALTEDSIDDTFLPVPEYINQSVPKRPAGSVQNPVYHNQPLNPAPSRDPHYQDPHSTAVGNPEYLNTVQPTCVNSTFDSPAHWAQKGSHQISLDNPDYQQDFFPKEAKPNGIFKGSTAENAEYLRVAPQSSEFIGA
- ASSAY EXPLANATION: HotSpot radiometric kinase assay, EGFR Δ746-750 mutant
- PARTICULARS: 10 μM ATP
- Procedure: Biochemical Assays for Inhibition of Wild-Type and Mutant EGFRs Briefly, specific kinase/substrate pairs along with required cofactors were prepared in reaction buffer; 20 mM Hepes pH 7.5, 10 mM […], 1 mM EGTA, 0.02% Brij35, 0.02 mg/ml BSA, 0.1 mM Na3VO4, 2 mM DTT, 1% DMSO. Compounds were delivered into the reaction, followed […] later by addition of a mixture of ATP (Sigma, St. Louis MO) and ^33P ATP (Perkin Elmer, Waltham MA) to a final concentration of 10 μM. […]
MEASURED ATTRIBUTE: IC50 (nM)

CCOc1nn([C@@H](C)CO)c2c1/C=C/c1n[nH]c3cc(F)c(cc13)-c1cnn(C)c1O[C@H](C)CN(C(C)C)C2 ... 1.94
Cc1nn(C)c2c1/C=C/c1n[nH]c3ccc(cc13)-c1cnn(C)c1O[C@@H](C)CN(C)C2 ... 7.76

1. C[C@H]1CN(C)Cc2c(c(OCC#N)nn2CCO)/C=C/c2n[nH]c3ccc(cc23)-c2cnn(C)c2O1
2. CCOc1nn(CCO)c2c1/C=C/c1n[nH]c3ccc(cc13)-c1cnn(C)c1O[C@@H](CC)CN(C)C2
When the recorded IC50 values are compared, which is smaller: that of 1 or that of 2 ? In your reply, give the label of the chosen option.
1
(1: 0.11 nM, 2: 3.5 nM)
